- tested_system: T1, biotinylated native human ApoC3 (human, UniProt P02656 21-99, biotinylated (site not stated))
- T1 construct: also called biotinylated human ApoC3
- T1 sequence (P02656 21-99): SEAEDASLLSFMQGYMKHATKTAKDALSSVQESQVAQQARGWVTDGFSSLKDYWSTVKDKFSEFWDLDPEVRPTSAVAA
- method_notes: SPR, IgG1 over biotinylated ApoC3 on SA chip, pH 7.4
readout: koff (s⁻¹)
Just the number please, in s⁻¹, no unit attached.

These solved cases illustrate the format of a correct answer.
mAb13 (antibody, IgG1, V domains shown, Produced as full length IgG1 (kappa) in ExpiCHO-S cells; CDR graft into the closest human germline frameworks; also called humanized anti-ApoC3 antibody mAb13; variant 13) VH: QLLESGGGLVQPGGSLRLSCAASGFTFSTYSMRWVRQVPGKGLEWVSSIHTEGGGTAYRDSVKGRFTISRDNSKNTLYLQMNSLRAEDTAVYYCVIAGYSDWGQGTLVTVSS VL: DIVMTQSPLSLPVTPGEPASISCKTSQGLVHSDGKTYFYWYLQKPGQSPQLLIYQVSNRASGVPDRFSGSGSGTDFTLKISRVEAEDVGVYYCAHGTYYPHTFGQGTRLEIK	0.000461
mAb20 (antibody, IgG1, V domains shown, Produced as full length IgG1 (kappa) in ExpiCHO-S cells; also called humanized anti-ApoC3 antibody mAb20) VH: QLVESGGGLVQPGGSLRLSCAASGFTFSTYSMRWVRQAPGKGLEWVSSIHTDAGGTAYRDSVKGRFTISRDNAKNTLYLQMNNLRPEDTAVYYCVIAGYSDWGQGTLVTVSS VL: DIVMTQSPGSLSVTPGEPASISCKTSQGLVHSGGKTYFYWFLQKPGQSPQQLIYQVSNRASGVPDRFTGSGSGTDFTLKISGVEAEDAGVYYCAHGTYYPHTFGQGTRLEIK	0.000487

With those in mind, consider the next binder.
Query string: Entry mAb10 (antibody, IgG1, V domains shown, Produced as full length IgG1 (kappa) in ExpiCHO-S cells; also called humanized anti-ApoC3 antibody mAb10) VH: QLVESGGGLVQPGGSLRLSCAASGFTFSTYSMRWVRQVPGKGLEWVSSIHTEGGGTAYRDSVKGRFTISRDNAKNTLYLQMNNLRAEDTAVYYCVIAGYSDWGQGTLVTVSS VL: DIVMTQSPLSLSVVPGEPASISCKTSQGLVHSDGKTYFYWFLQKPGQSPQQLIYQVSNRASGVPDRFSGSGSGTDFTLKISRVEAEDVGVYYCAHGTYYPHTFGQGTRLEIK has what koff?
Result string: 2.12e-05
